- tested-system: EGFR (Homo sapiens, UniProt P00533)
- Construct: intracellular portion of EGFR started at nucleotide 2189 (corresponding to amino acid 667) and ended at the termination codon; made in house; host or cells: Sf9 insect cells (baculovirus)
- Sequence (P00533 669-1210 limits assumed): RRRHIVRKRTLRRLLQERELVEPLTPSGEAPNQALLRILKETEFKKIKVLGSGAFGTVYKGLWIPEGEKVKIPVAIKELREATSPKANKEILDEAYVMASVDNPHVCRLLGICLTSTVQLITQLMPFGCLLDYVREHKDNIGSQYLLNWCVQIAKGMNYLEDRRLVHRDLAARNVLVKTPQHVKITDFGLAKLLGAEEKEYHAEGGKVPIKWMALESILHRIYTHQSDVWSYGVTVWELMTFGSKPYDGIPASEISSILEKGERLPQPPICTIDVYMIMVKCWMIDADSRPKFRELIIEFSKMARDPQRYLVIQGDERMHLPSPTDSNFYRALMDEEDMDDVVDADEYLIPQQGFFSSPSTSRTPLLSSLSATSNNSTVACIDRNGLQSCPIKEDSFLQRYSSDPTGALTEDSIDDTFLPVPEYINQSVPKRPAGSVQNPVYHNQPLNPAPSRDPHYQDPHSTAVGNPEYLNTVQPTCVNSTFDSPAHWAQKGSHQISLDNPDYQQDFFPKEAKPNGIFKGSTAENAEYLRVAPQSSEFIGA
- assay-notes: EGFR Kinase Assay
- Assay type: biochemical
- settings: test concentration of 2 μM
Answer each item with its documented inhibition at 2 µM.
Answers are plain numbers, in %.

>  <smiles-input>
NS(=O)(=O)c1ccc(Nc2nc(Nc3ccccc3)nc3[nH]ncc23)cc1

>  <unit-string>
%

>  <reported>
40

$$$$

Working through the 2 compounds below one at a time, give inhibition at 2 µM for each.
1. O=S(=O)(NCCO)c1ccc(Nc2nc(Nc3ccc(S(=O)(=O)NCCO)cc3)c3cnoc3n2)cc1
2. O=S(=O)(NCCO)c1ccc(Nc2nc(Nc3ccc(S(=O)(=O)NCCO)cc3)c3cn[nH]c3n2)cc1

Result:
12
78

Cited source for all entries: patent US8314234B2
